# target: UniProt P18130
# Sequence (P18130 whole entry): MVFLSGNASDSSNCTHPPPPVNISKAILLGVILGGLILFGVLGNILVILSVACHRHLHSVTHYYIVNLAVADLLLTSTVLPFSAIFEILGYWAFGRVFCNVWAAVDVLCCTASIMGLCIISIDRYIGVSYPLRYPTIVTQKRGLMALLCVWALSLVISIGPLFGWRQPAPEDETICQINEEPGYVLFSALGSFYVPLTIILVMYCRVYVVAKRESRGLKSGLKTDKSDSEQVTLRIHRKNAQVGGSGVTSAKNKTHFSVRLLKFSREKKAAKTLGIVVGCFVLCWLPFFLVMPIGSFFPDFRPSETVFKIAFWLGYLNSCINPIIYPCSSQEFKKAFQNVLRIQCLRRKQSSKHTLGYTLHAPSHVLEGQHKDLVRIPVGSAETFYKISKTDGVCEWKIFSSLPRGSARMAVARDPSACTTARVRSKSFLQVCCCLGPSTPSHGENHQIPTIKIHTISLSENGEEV

compound | target | Ki [nM]
NCC(O)c1ccc(O)c(O)c1 (single isomer, unassigned) [NOREPINEPHRINE] | UniProt P18130 | 447
CS(=O)(=O)Nc1c(O)ccc2c1CCC[C@@H]2C1=NCCN1 | UniProt P18130 | 1450
CS(=O)(=O)Nc1c(O)ccc2c1CCCC2C1=NCCN1 (centres undefined) | UniProt P18130 | 30.2
CS(=O)(=O)Nc1c(O)ccc2c1CCC[C@H]2C1=NCCN1 | UniProt P18130 | 17.4

====

# target: UniProtKB P23944
# Sequence (P23944 whole entry): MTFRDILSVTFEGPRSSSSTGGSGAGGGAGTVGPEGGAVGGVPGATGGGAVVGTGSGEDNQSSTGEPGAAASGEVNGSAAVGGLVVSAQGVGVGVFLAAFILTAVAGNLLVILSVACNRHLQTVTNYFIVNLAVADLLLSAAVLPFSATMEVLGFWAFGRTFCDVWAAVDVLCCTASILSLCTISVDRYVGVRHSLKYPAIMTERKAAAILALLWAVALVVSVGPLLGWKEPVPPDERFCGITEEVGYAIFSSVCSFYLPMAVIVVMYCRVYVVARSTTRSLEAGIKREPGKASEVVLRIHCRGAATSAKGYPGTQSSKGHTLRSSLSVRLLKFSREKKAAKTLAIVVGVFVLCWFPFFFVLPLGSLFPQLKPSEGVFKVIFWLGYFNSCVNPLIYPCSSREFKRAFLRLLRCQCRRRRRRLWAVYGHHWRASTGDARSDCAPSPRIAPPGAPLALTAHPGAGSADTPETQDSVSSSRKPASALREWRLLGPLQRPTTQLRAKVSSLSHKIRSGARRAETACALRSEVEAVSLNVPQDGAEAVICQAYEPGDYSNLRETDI
pKi: −log10 of the molar value.
Entries and their pKi values follow.

structure-notation | pKi
CS(=O)(=O)Nc1c(O)ccc2c1CCC[C@H]2C1=NCCN1 | 5.99
CS(=O)(=O)Nc1c(O)ccc2c1CCC[C@@H]2C1=NCCN1 | 5.53
